# Test system: HTT mRNA
# EXPERIMENTAL_PROTOCOL: Splicing RT-qPCR assay, HTT canonical (CJ) and alternative (AJ) junction mRNA
# Type: cell-based, human
# TEST_PARAMETERS: Homo sapiens, A673 or K562 cells, 24 hours compound treatment, read-out: HTT AJ (AC50, increase in alternative junction mRNA)
RESULT_TYPE: AC50

Illustrative cases are given below, each with its answer.
SMILES_CODE	ASSAY_VALUE
CCn1cc2c(N3C[C@@H](C)N[C@@H](C)C3)ccc(C(=O)Nc3cc(F)c4nc(C)cn4c3)c2n1	1 to 10 µM
CCn1cc2c(N(C)C3CCNCC3)ccc(C(=O)Nc3cc(F)c4nc(C)cn4c3)c2n1	> 10 µM
Cn1cc2c(F)cc(NC(=O)c3ccc(N4CCNCC4)c4cn(C)nc34)cc2n1	> 10 µM
Cc1cn2nc(NC(=O)c3ccc(N4CCNCC4)c4cc(C)oc34)cc2c(C)n1	> 10 µM
Cc1cn2cc(NC(=O)c3ccc(N4CCNCC4)c4cc(C)oc34)cc(F)c2n1	1 to 10 µM

Okay, here is my list. What is AC50 for each of these?
1. CN[C@H]1CCN(c2ccc(C(=O)Nc3cn4cc(C)nc4c(N(C)C)n3)c3nn(C)cc23)C1
2. Cc1cn2cc(NC(=O)c3ccc(N4CC5(CNC5)C4)c4cc(C)oc34)cc(F)c2n1

Return:
1: > 10 µM; 2: 1 to 10 µM

----------
# System: Target C mRNA
# EXPERIMENTAL_PROTOCOL: Splicing RT-qPCR gene panel, Target C canonical junction (CJ) mRNA
# Format: cell-based, human
# TEST_PARAMETERS: Homo sapiens, Tables 4A/4B, read-out: Target C (IC50, decrease in CJ mRNA, gene panel)
# Experimental: Compounds described herein were used to modulate RNA transcript abundance in cells. The expression of a target mRNA was measured by detecting the formation of an exon-exon junction in the canonical transcript (CJ). A compound mediated exon-inclusion event was detected by observing an increase in formation of a new junction with an alternative exon (AJ). Real-time qPCR assays were used to detect these splicing switches and interrogate the potency of various compounds towards different target genes. […]
pIC50: −log10 of the molar value.
RESULT_TYPE: pIC50

MOLECULE	pIC50
Cn1cc2c(N3CCNCC3)ccc(C(=O)Nc3cc(F)c4nc(CO)cn4c3)c2n1 [Compound 389]	< 5.00
Cc1cn2cc(NC(=O)c3ccc(N4CCC5(CCN5)C4)c4cn(C)nc34)cc(F)c2n1 (stereo not shown) [Compound 299]	< 5.00
Cc1cn2cc(NC(=O)c3ccc(N(C)C4CCN(C)CC4)c4cc(C)oc34)cc(F)c2n1 [Compound 200]	5.00 to 6.00

Hi team, please reply with pIC50 for each item in this list.
1. Cc1cn2cc(NC(=O)c3ccc(N4CCN(C)CC4)c4cn(C)nc34)cc(F)c2n1 [Compound 207]
2. Cn1cc2c(F)cc(NC(=O)c3ccc(N4CCNCC4)c4cn(C)nc34)cc2n1 [Compound 231]
3. Cc1cn2cc(NC(=O)c3ccc(N4CCNCC4)c4cn(C5CC5)nc34)cc(F)c2n1 [Compound 294]
4. Cc1cn2cc(NC(=O)c3ccc(N4CCC(N(C)C)CC4)c4cn(C)nc34)cc(F)c2n1 [Compound 251]
5. Cc1cn2cc(NC(=O)c3ccc(N4CCNC(C)C4)c4cn(C)nc34)cc(F)c2n1 (stereo not shown) [Compound 228]
6. Cc1cn2cc(NC(=O)c3ccc(C4C[C@@H](C)N[C@@H](C)C4)c4cn(C)nc34)cc(F)c2n1 (stereo partly shown) [Compound 211]
7. Cc1cn2cc(NC(=O)c3ccc(N4C[C@@H](C)N[C@@H](C)C4)c4cn(C)nc34)cc(F)c2n1 [Compound 326]

Return:
["5.00 to 6.00", "< 5.00", "< 5.00", "5.00 to 6.00", "6.00 to 7.00", "5.00 to 6.00", "5.00 to 6.00"]
